- method: HepG2 cells viability qHTS for Zika virus inhibitors (AID 1347168)
- assay_setup: Zika counter-screen; series mostly up to 45.9 µM
- Method: Avindra Nath, Ph.D., National Institute of Neurological Disorders and Stroke (NINDS), Bethesda, MD Radhakrishnan Padmanabhan, Ph.D., Georgetown University (GU), Washington D.C. […] Vero and HepG2 cell cytotoxicity were determined using a luminescent readout with CellTiter Glo reagent (Promega, Madison, WI), which is based on measuring the ATP content within cells. […] Finally, plates were incubated for 30 minutes at 37 degrees C and 5% CO2 before being read on a ViewLux (Perkin Elmer) for luminescence.
Results filed as inconclusive are left out. Activity calls are given as the source filed them. Calls come from the whole dose curve; as a rule, active = well fitted cell-killing curve with a large enough effect; inconclusive = small, poorly fitted or top-dose-only effect; inactive = flat fitted curve, though single readings scatter.
Write down the outcome that applies. Available outcomes: 1 for active, 0 for inactive

Lab log entry: "CN(C)[C@@H]1C(=O)C(C(=O)NCN2CCCC2)=C(O)[C@@]2(O)C(=O)C3=C(O)c4c(O)cccc4[C@@](C)(O)[C@H]3C[C@@H]12" — outcome as called in the assay?
0

Lab log entry: "CC(=O)Oc1cc2c(c(C)c1OC(C)=O)CC=C1[C@@]2(C)CC[C@@]2(C)[C@H]3C[C@](C)(C(=O)O)CC[C@]3(C)CC[C@]12C" — outcome as called in the assay?
1

Lab log entry: "Nc1ncnc2c1ncn2[C@@H]1O[C@H](CSCC[C@H](N)C(=O)O)[C@@H](O)[C@H]1O" — outcome as called in the assay?
0

Lab log entry: "Cc1c(-c2ccc(O)cc2)nn(-c2ccc(O)cc2)c1-c1ccc(OCCN2CCCCC2)cc1" — outcome as called in the assay?
1

Lab log entry: CCOC(=O)O[C@H](C)OC(=O)C1N2C(=O)[C@H](NC(=O)[C@H](N)c3ccccc3)C2SC1(C)C (stereo partly specified) — outcome as called in the assay?
0

Lab log entry: "CC[C@H](C)[C@H]1O[C@]2(CC[C@@H]1C)C[C@@H]1C[C@@H](C/C=C(\C)[C@@H](O[C@H]3C[C@H](OC)[C@@H](O[C@H]4C[C@H](OC)[C@@H](O)[C@H](C)O4)[C@H](C)O3)[C@@H](C)/C=C/C=C3\CO[C@@H]4[C@H](O)C(C)=C[C@@H](C(=O)O1)[C@]34O)O2" — outcome as called in the assay?
0

----------
- method: qHTS for Inhibitors of Plasmodium falciparum (7G8) proliferation (AID 504316); note: nearly all actives have a fitted effect of over 65% in size
- assay_setup: P. falciparum 7G8 in erythrocytes, SYBR Green DNA, 72 h; series mostly up to 6.7 µM
Results filed as inconclusive are left out. The source made the active and inactive calls. Calls come from the whole dose curve; as a rule, active = well fitted inhibition curve with a large enough effect; inconclusive = small, poorly fitted or top-dose-only effect; inactive = flat fitted curve, though single readings scatter.
Write down the outcome that applies. Available outcomes: active, inactive

Lab log entry: "COc1ccc2c(c1)C(=O)[C@@H](OC(=O)NS(=O)(=O)c1ccc(F)cc1)[C@H](c1ccc(OC)c(Br)c1)O2" — outcome as called in the assay?
inactive

Lab log entry: "COC(=O)[C@@H]1CC[C@H](C)[C@@H](c2ccc(C)cc2)N1C(=O)c1ccc(C=NOC[C@@H](O)[C@H]2O[C@@H]3OC(C)(C)O[C@H]3[C@@H]2O)cc1" — outcome as called in the assay?
active

Lab log entry: "COC1=C[C@H](C(=O)NCc2ccccn2)[C@H](C)[C@@H](c2ccccc2)CC1=O" — outcome as called in the assay?
inactive

Lab log entry: "CCN1C(=O)[C@@H]2[C@H]3[C@H](O)[C@H](O)CC(=NO[C@H](C)c4cn([C@@H]5COC[C@@H]5O)nn4)[C@@H]3CC[C@H]2C1=O" — outcome as called in the assay?
inactive

Lab log entry: "OC[C@H]1O[C@H](c2ccccc2)C=C[C@H]1OCc1cccc(Br)c1" — outcome as called in the assay?
inactive

Lab log entry: "COc1ccc(-c2nc3c(c4c2C[C@H](c2ccccc2)OC4)CN(C(=O)N[C@@H](C)C(=O)OC(C)C)CC3)c(C)c1" — outcome as called in the assay?
active

Lab log entry: "COC[C@H]1O[C@@H](c2c(OC)cc(OC)cc2OC)[C@H](OC)[C@@H](OC)[C@H]1OC" — outcome as called in the assay?
inactive
